// data source = patent US20170355771A1

# target_of_assay: T1, GPIIb/IIIa (SEQ ID NOs: 23 and 24) (human, UniProt P08514 32-994; P05106 27-716)
# T1 construct: also called GPIIb/IIIa complex
# protocol_details: Bio-Layer Interferometry (OctetRed), monovalent format, yeast-purified Fab; apparent monovalent affinity
Here the recorded pKd is given for each entry.
Just the number, please; pKd means minus log10 of the concentration in mol/L.

Would you please look over these solved cases?
binder	pKd
affinity matured h34D10 Fab VH106/VL0 (Fab, V domains shown, Yeast-purified Fab) VH: EVQLVECGGGLVKPGGSLRLSCAASGFTFSAYAMSWVRQAPGKGLVWVASISSGGTTYYPDSVKRQFTISRDNAKNTLYLQMNSLRAEDTAVYYCTRGGDYSYALDYWGQGTLVTVSS VL: EIVMTQSPATLSVSPGERATLSCRASSSVNYMYWYQQKPGQAPRLLIYYTSNLAPGIPARFSGSGSGTEFTLTISSLQSEDFAVYYCQQFSSSPWTFGQGTKVEIK	7.36
affinity matured h34D10 Fab VH115/VL0 (Fab, V domains shown, Yeast-purified Fab) VH: GVQLVESGGGLVKPGGSLRLSCAASGFTFSAYAMSWVRQAPGKGLVWVASISSGGTTYYPDSVKRQFTISRDDAKNTLYLQMNSLRAEDTAVYYCTRGGDYGYALDYWGQGTLVTVSS VL: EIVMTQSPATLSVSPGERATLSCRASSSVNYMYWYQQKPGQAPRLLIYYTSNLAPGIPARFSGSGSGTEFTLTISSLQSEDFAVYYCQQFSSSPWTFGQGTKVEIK	6.92

Q: Any idea what pKd was measured for affinity matured h34D10 Fab VH107/VL0 (Fab, V domains shown, Yeast-purified Fab) VH: EVQLVESGGGLVKPGESLRLSCAASGFTFSAYAMSWVRQAPGEGLVWVASISSGGTTYYPDSVKRQFTISRDNAKNTLYLQMNSLRAEDTAVYYCTRGGDYSYALDYWGQGTLVTVSS VL: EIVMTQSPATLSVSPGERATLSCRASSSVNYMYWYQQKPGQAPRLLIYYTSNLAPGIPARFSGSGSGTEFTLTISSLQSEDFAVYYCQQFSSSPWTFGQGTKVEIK ?
Result: 7.32
